Tested on: LXRb homodimer (NR concentration 270 nM)
Assay: PBM binding z-score (relative to random genomic background probes); higher = stronger binding; sequences stand for … in GC…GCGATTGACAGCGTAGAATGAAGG
Everything with PBM binding z-score lower than 2 is NO; everything else, including exactly 2, is YES.

INSERT INTO results (sequence_content, assigned_category) VALUES
  ('GGAACGAGGTCAAGTTGATAGCAGAGTTTGATGG', 'YES'),
  ('CGAACGAGGTCATCCAGGACAGTGAATACATTGA', 'NO'),
  ('GCTAGTTGGTCAGTAAAATGTCACACACCGGTCG', 'NO'),
  ('AGTCAAAGGTCATCTAGGTAACGTAAGATATGCT', 'YES'),
  ('GCTGCTAGGTCAACTGATGGCCAGCTAAAGCTCG', 'NO'),
  ('CAAACGAGGTCAAAGGTCAAAGTCGAGCCAACCA', 'YES'),
  ('CAAACTAGGTCAAGAGGTCAAAGTTCGCTTCCCG', 'YES'),
  ('TAGCCTAGGTCATGCGGGACAGTATAGTGTCGGC', 'NO'),
  ('CAAACGAGGTCACCGGAAGGTCAAAGTCCGCATG', 'YES'),
  ('TCTAGTTGGTCTAAGGTCACACACTCGAAATGCG', 'NO'),
  ('TCTCGGAGGACACCAAAGGTCAGAGCTCGACATC', 'NO'),
  ('CGTCAAAGGTCAATGCTAGGTCAGTGAAAGCATT', 'YES'),
  ('AGTCAAAGTTCATCTAGGTAACATAAGATATGCT', 'YES'),
  ('CAAAATAGGTCAAAGGTCAAAGTCGAGCCAACCA', 'YES'),
  ('CCAACTGGGCCAAAAAGGTCATTGATGCCGATAA', 'NO'),
  ('ACTAGTTGGTCAGCTGAGGTCACACCCAATTCGG', 'NO'),
  ('CCTTACGGGTCACTGACAGGTTATAGCGTTTGGA', 'NO'),
  ('TCTTGTAGATCAACAGGAGGTTAATAAAGATCGA', 'NO'),
  ('CAAAATAGGTCACGAAAGGTCAAAGTCGAATGAC', 'YES'),
  ('ATCGAAAGGTCGACGAGGTGAGTAAACACCGTTT', 'NO'),
  ('TCTAGTTGGTCACGGAGGACACACACGACGGGTA', 'NO');
